test system: HOP-92; experiment: NCI tumour cell line growth inhibition, 48 h
Active and inactive are the calls of the source. No stated cut-off is given here; in the data, active = GI50 up to about 1.1 µM and inactive = higher.
Catalogue of compounds with associated GI50

Compound: COc1c(O)ccc(C2=Cc3ccc(O)cc3OC2)c1OC
GI50: 24 µM (inactive)

Compound: O=C1C(Cl)C(c2cccc(Cl)c2)N1c1ccc(-n2c(S)nc3ccccc3c2=O)cc1 (stereo unspecified)
GI50: 19.9 µM (inactive)

Compound: CCC1=C(C=O)c2cc3[nH]c(cc4nc(c5c6[nH]c(cc1n2)c(C)c6C(=O)C5C(=O)OC)C(CCC(=O)OC)C4C)c(C)c3CC (stereo unspecified)
GI50: > 100 µM (inactive)

Compound: N#CC(C(=O)/C(=N/Nc1nc(S)nn1N)C(C#N)c1ccccc1)c1ccccc1 (stereo unspecified)
GI50: > 100 µM (inactive)

Compound: Cc1cccc(C2SCc3nc4ccccc4n32)c1 (stereo unspecified)
GI50: 14.7 µM (inactive)

Compound: Cc1c(C)c(C)c(Cn2[nH]c(=O)n(C)c2=O)c(C)c1C
GI50: > 100 µM (inactive)
